- Assay method text: self-splicing fitness, log relative to wild type (ln ratio); higher = more splicing; Tetrahymena group I intron in knt gene, E. coli kanamycin selection, DiMSum; sequences stand for … in CUCUCU…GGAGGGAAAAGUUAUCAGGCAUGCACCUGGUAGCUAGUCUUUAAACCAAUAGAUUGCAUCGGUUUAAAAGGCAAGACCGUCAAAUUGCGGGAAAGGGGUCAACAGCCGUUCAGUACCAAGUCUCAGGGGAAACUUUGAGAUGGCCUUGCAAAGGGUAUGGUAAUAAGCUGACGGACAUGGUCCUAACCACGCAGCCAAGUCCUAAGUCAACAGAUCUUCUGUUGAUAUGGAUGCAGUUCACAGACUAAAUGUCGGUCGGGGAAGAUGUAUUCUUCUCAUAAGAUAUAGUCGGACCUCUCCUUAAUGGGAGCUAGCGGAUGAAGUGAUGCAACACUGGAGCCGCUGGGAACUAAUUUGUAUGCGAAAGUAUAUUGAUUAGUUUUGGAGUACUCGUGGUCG;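 note: selection with 25 µg/mL kanamycin versus none on LB agar overnight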
- Settings: 30 °C
Observed property: self-splicing fitness (ln)

>>> recorded_result("GAUUAGCAAUAUUACGUCCG")
-1.73
>>> recorded_result("UGAUAGCAAUAUUACGAGGA")
-3.09
>>> recorded_result("CCCCAGCAAUAUUACGUCGU")
-3.19
>>> recorded_result("GGAUAGCAAUAUUACGGUGA")
-2.43
>>> recorded_result("UAGAAGCAAUAUUACGCCCG")
-0.762
>>> recorded_result("GCAUAGCAAUAUUACGGGAG")
-2.96
>>> recorded_result("GUUUAGCAAUAUUACGCUUG")
-1.18
>>> recorded_result("GACAAGCAAUAUUACGCGUU")
-4.47
